test: log P by HPLC on reversed-phase column (C 18), acidic range; format: physicochemical
Marks after values point to notes of the source that are not given here.
readout-kind: logP

For reference, reported logP for `COc1nn(Cc2c(Cl)ccc(C(=O)c3c(C)nn(C(C)(C)C)c3O)c2Cl)c(=O)n1C` stands at logP = 3.02^a)

Just so you know, measured logP for `CCOC(=O)c1ccc(Br)c(Cn2nc(C3CC3)n(C3CC3)c2=O)c1` came out at logP = 3.02^a)

Query `CCOC(=O)c1ccc(C(F)(F)F)cc1Cn1nc(SC)n(C)c1=O` yields logP of logP = 3.02^a)

Field logP (entry `CCn1ncc(C(=O)c2ccc(Cl)c(Cn3nc(SC)n(C)c3=O)c2Cl)c1O` ) reads logP = 1.91^a)

***
logP in this record for `CCn1nc(C)c(C(=O)c2ccc(Cl)c(Cn3nc(SC)n(C)c3=O)c2Cl)c1O` : logP = 1.91^a)

====

assay: log P by HPLC on reversed-phase column (C 18), acidic range; format: physicochemical
Marks after values point to notes of the source that are not given here.
readout-kind: logP

Worked cases, answers included:
Just so you know, measured logP for `CCOc1nn(Cc2c(Cl)ccc(C(=O)c3c(C)nn(C)c3O)c2Cl)c(=O)n1C` came out at logP = 1.76^a)

So for `CCn1ncc(C(=O)c2ccc(F)c(Cn3nc(C)n(C)c3=O)c2Cl)c1O` , the logged logP turned out to be logP = 1.76^a)

logP recorded for this compound, `CCn1ncc(C(=O)c2ccc(Cl)c(Cn3nc(SC)n(C)c3=O)c2F)c1O` , is logP = 1.99^a)

For record `CCOc1nn(Cc2ccc(C(=O)c3cnn(CC)c3O)c([N+](=O)[O-])c2OC)c(=O)n1C` the listed logP is logP = 1.99^a)

Attention now shifts to the item below.
Lookup result for `CCn1ncc(C(=O)c2ccc(F)c(Cn3nc(SC)n(C)c3=O)c2Cl)c1O` ; measured logP: logP = 1.76^a)

====

experiment: log P by HPLC on reversed-phase column (C 18), acidic range; type: physicochemical
Marks after values point to notes of the source that are not given here.
readout-kind: logP

Short answer for `CCn1ncc(C(=O)c2ccc(C(F)(F)F)cc2Cn2nc(SC)n(C)c2=O)c1OCC(=O)c1ccccc1` : logP was logP = 3.19^a)

Measured logP of `Cc1nn(C(C)(C)C)c(O)c1C(=O)c1ccc(Cl)c(Cn2nc(Br)n(C)c2=O)c1Cl` : logP = 3.19^a)

====

test: log P by HPLC on reversed-phase column (C 18), acidic range; format: physicochemical
Marks after values point to notes of the source that are not given here.
readout-kind: logP

Lab book: logP of `CCn1ncc(C(=O)c2ccc(C(F)(F)F)cc2Cn2nc(SC)n(C)c2=O)c1OS(C)(=O)=O` noted as logP = 2.82^a)

The measured logP associated with `CCOc1c(C(=O)c2ccc(C(F)(F)F)cc2Cn2nc(OCC)n(C)c2=O)cnn1CC` reads logP = 2.82^a)

====

Assay: log P by HPLC on reversed-phase column (C 18), acidic range
Format: physicochemical
Description: Temperature: 43° C. […] The log P values given in Table 3 were determined in accordance with EEC Directive 79/831 Annex V.A8 by HPLC (High Performance Liquid Chromatography) on a reversed-phase column (C 18). Temperature: 43° C. […] The log P values given in Tables 4 were determined in accordance with EEC Directive 79/831 Annex V.A8 by HPLC (High Performance Liquid Chromatography) on a reversed-phase column (C 18). Temperature: 43° C.
Marks after values point to notes of the source that are not given here.
readout-kind: logP

Please review the entries below; each comes with its answer.
Per the record, `CCn1ncc(C(=O)c2ccc(Cl)c(Cn3nc(C)n(C)c3=O)c2Cl)c1O` has logP of logP = 1.38^a)

Quick note, logP for `CCOc1nn(Cc2c(Cl)ccc(C(=O)c3cnn(C)c3O)c2Cl)c(=O)n1C` landed at logP = 1.77^a)

Just so you know, measured logP for `Cc1nn(C)c(O)c1C(=O)c1ccc(Cl)c(CN2CCN(C)C2=O)c1Cl` came out at logP = 1.38^a)

`CCOC(=O)c1ccc(S(C)(=O)=O)cc1CN1C(=O)CCC1=O` has a reported logP of logP = 1.53^a)

Form field logP, entry `CCOc1nn(Cc2cc(I)ccc2C(=O)OC)c(=O)n1C` : logP = 2.68^a)

// `CCOC(=O)c1ccc(C(F)(F)F)cc1Cn1cnn(C)c1=O` : logP value = logP = 2.68^a)

Given item `CCn1ncc(C(=O)c2ccc(Cl)c(Cn3nc(N(C)C)n(C)c3=O)c2Cl)c1O` , the value recorded as its logP is logP = 1.77^a)

***
Recorded logP (compound `COC(=O)c1ccc(S(C)(=O)=O)cc1Cn1nc(SC)n(C)c1=O` ): logP = 1.53^a)
